test: Flask method water solubility test; format: physicochemical; conditions: water, thermodynamic from solid, saturated solution equilibrated at least 24 hours, room temperature
measured_endpoint: solubility

(Q) For the molecule CO[C@]1(c2cccc(F)c2F)CCNC1.O=C(O)/C=C/C(=O)O [Example 7] , give its measured solubility value.
(A) 74.1 mg/mL

###

assay: Regular water solubility test; assay type: physicochemical; settings: thermodynamic from solid, room temperature
measured_endpoint: solubility (mg/mL)
Express your answer in mg/mL, writing the number without its unit.

(Q) For the compound CO[C@]1(c2cccc(F)c2F)CCNC1.O=C(O)/C=C/C(=O)O , give its measured solubility value.
(A) 34

###

experiment: Hygroscopicity test; type: physicochemical; settings: relative humidity 56%, 30° C., one week
Listing of entries alongside the reported Weight difference (%).
Express your answer in %, writing the number without its unit.

(Q) For the molecule COC1(c2cccc(F)c2F)CCNC1.O=C(O)C[C@H](O)C(=O)O (centres unmarked) , give its measured Weight difference (%) value.
(A) −0.06

(Q) For the molecule COC1(c2cccc(F)c2F)CCNC1.O=C(O)C(O)C(O)C(=O)O (centres unmarked) , give its measured Weight difference (%) value.
(A) 1.99

(Q) For the molecule COC1(c2cccc(F)c2F)CCNC1.Cl (centres unmarked) , give its measured Weight difference (%) value.
(A) −0.14

(Q) For the molecule COC1(c2cccc(F)c2F)CCNC1.O=C(O)C(=O)O (centres unmarked) [Reference Example 19, reference compound] , give its measured Weight difference (%) value.
(A) 0.00

(Q) For the molecule CO[C@]1(c2cccc(F)c2F)CCNC1.O=C(O)/C=C/C(=O)O , give its measured Weight difference (%) value.
(A) 0.19
